- Tested on: UT-SCC-8
- Procedure text: drug sensitivity score (DSS); higher = more sensitive; extreme values may be limits of the assay
- Measurement parameters: culture condition: on top of Myogel; treatment time: 3 days
Recorded endpoint: log10 drug sensitivity score (log10 of the value in DSS)
For clarity, the numbers are log10 values of drug sensitivity score expressed in DSS.

The examples below pair each entry with its known result.
| Chemical structure | log10 drug sensitivity score |
| --- | --- |
| Cn1c(=O)n(-c2ccc(C(C)(C)C#N)cc2)c2c3cc(-c4cnc5ccccc5c4)ccc3ncc21 | -0.88 |
| CO[C@H]1C[C@@H]2CC[C@@H](C)[C@@](O)(O2)C(=O)C(=O)N2CCCC[C@H]2C(=O)O[C@H]([C@H](C)C[C@@H]2CC[C@@H](O)[C@H](OC)C2)CC(=O)[C@H](C)/C=C(\C)[C@@H](O)[C@@H](OC)C(=O)[C@H](C)C[C@H](C)/C=C/C=C/C=C/1C | 1.05 |
| CO[C@H]1C[C@@H]2CC[C@@H](C)[C@@](O)(O2)C(=O)C(=O)N2CCCC[C@H]2C(=O)O[C@H]([C@H](C)C[C@@H]2CC[C@@H](OC(=O)C(C)(CO)CO)[C@H](OC)C2)CC(=O)[C@H](C)/C=C(\C)[C@@H](O)[C@@H](OC)C(=O)[C@H](C)C[C@H](C)/C=C/C=C/C=C/1C | 1.06 |
| CO[C@H]1C[C@@H]2CC[C@@H](C)[C@@](O)(O2)C(=O)C(=O)N2CCCC[C@H]2C(=O)O[C@H]([C@H](C)C[C@@H]2CC[C@@H](OCCO)[C@H](OC)C2)CC(=O)[C@H](C)/C=C(\C)[C@@H](O)[C@@H](OC)C(=O)[C@H](C)C[C@H](C)/C=C/C=C/C=C/1C | 0.90 |
| COc1cc2ncnc(Nc3ccc(F)c(Cl)c3)c2cc1OCCCN1CCOCC1 | 0.38 |

Q) // map O=C(NC[C@H](O)CO)c1ccncc1Nc1ccc(I)cc1F to recorded log10 drug sensitivity score (system: UT-SCC-8)
A) 1.23

Q) Record: CC(=O)Nc1cccc(-n2c(=O)n(C3CC3)c(=O)c3c(Nc4ccc(I)cc4F)n(C)c(=O)c(C)c32)c1
A) 0.67

Q) And what about the compound Cn1c(=O)c(F)c(Nc2ccc(I)cc2F)c2c(=O)n(C[C@@H](O)CO)cnc21 ?
A) 0.88

Q) Repeat for the following compound: Cc1c(CN2CCN(C(=O)[C@H](C)O)CC2)sc2c(N3CCOCC3)nc(-c3cnc(N)nc3)nc12
A) 0.96

Q) For Cn1cnc2c(F)c(Nc3ccc(Br)cc3F)c(C(=O)NOCCO)cc21 then?
A) 0.67

Q) Input COc1cc(F)c(F)c(Nc2ccc(I)cc2F)c1NS(=O)(=O)C1(C[C@H](O)CO)CC1
A) 1.01

* * *

- Test system: UT-SCC-42B
- Procedure text: maximal % inhibition of viability relative to DMSO; higher = stronger effect
- Measurement parameters: culture condition: embedded in Matrigel; treatment time: 3 days
Note to self: maximal % inhibition of viability under 70% means class 1, ties and anything higher get class 0.

// below: answered compounds
| Chemical structure | Discrete label |
| --- | --- |
| Cc1c(CN2CCN(C(=O)[C@H](C)O)CC2)sc2c(N3CCOCC3)nc(-c3cnc(N)nc3)nc12 | class 0 |
| Cn1c(=O)n(-c2ccc(C(C)(C)C#N)cc2)c2c3cc(-c4cnc5ccccc5c4)ccc3ncc21 | class 1 |

Q) Lab note: confirm whether the reported maximal % inhibition of viability for this compound is below 70%, equality not counting. compound: C#Cc1cccc(Nc2ncnc3cc(OCCOC)c(OCCOC)cc23)c1
A) class 1

Q) Same lookup for C=CC(=O)Nc1cc2c(Nc3ccc(F)c(Cl)c3)ncnc2cc1OCCCN1CCOCC1 , please.
A) class 0

Q) Please do the same for CO[C@H]1C[C@@H]2CC[C@@H](C)[C@@](O)(O2)C(=O)C(=O)N2CCCC[C@H]2C(=O)O[C@H]([C@H](C)C[C@@H]2CC[C@@H](OC(=O)C(C)(CO)CO)[C@H](OC)C2)CC(=O)[C@H](C)/C=C(\C)[C@@H](O)[C@@H](OC)C(=O)[C@H](C)C[C@H](C)/C=C/C=C/C=C/1C as well.
A) class 1

* * *

- Test system: UT-SCC-40
- Procedure text: maximal % inhibition of viability relative to DMSO; higher = stronger effect
- Measurement parameters: culture condition: embedded in Myogel + collagen I; treatment time: 3 days
Listed compounds paired with reported maximal % inhibition of viability
Numeric only. Scale: %

Some entries whose results are on file:
| Compound | maximal % inhibition of viability / % |
| --- | --- |
| Cn1c(=O)c(F)c(Nc2ccc(I)cc2F)c2c(=O)n(C[C@@H](O)CO)cnc21 [TAK-733] | 64 |
| COc1ncc(-c2ccc3nccc(-c4ccnnc4)c3c2)cc1NS(=O)(=O)c1ccc(F)cc1F [Omipalisib] | 89.9 |
| CO[C@H]1C[C@@H]2CC[C@@H](C)[C@@](O)(O2)C(=O)C(=O)N2CCCC[C@H]2C(=O)O[C@H]([C@H](C)C[C@@H]2CC[C@@H](OCCO)[C@H](OC)C2)CC(=O)[C@H](C)/C=C(\C)[C@@H](O)[C@@H](OC)C(=O)[C@H](C)C[C@H](C)/C=C/C=C/C=C/1C [Everolimus] | 33.3 |

Q) # maximal % inhibition of viability lookup, item Cc1c(CN2CCN(C(=O)[C@H](C)O)CC2)sc2c(N3CCOCC3)nc(-c3cnc(N)nc3)nc12 [Apitolisib]
A) 78.6

Q) Also check C#Cc1cccc(Nc2ncnc3cc(OCCOC)c(OCCOC)cc23)c1 [Erlotinib]
A) 11.2

Q) Try the compound CO[C@H]1C[C@@H]2CC[C@@H](C)[C@@](O)(O2)C(=O)C(=O)N2CCCC[C@H]2C(=O)O[C@H]([C@H](C)C[C@@H]2CC[C@@H](OP(C)(C)=O)[C@H](OC)C2)CC(=O)[C@H](C)/C=C(\C)[C@@H](O)[C@@H](OC)C(=O)[C@H](C)C[C@H](C)/C=C/C=C/C=C/1C [Ridaforolimus]
A) 39

* * *

- System: UT-SCC-106A
- Procedure text: drug sensitivity score (DSS); higher = more sensitive; extreme values may be limits of the assay
- Measurement parameters: culture condition: embedded in Myogel + collagen I; treatment time: 3 days
Returns y if the recorded drug sensitivity score is greater than or equal to 4 DSS, and n otherwise.

Worked set:
| Chemical structure | Discrete label |
| --- | --- |
| COc1ccc(-c2cc3c(C)nc(N)nc3n([C@H]3CC[C@H](OCCO)CC3)c2=O)cn1 | y |
| Cc1c(CN2CCN(C(=O)[C@H](C)O)CC2)sc2c(N3CCOCC3)nc(-c3cnc(N)nc3)nc12 | y |
| CO[C@H]1C[C@@H]2CC[C@@H](C)[C@@](O)(O2)C(=O)C(=O)N2CCCC[C@H]2C(=O)O[C@H]([C@H](C)C[C@@H]2CC[C@@H](O)[C@H](OC)C2)CC(=O)[C@H](C)/C=C(\C)[C@@H](O)[C@@H](OC)C(=O)[C@H](C)C[C@H](C)/C=C/C=C/C=C/1C | n |

Q) Please tell me: is the compound O=C(NC[C@H](O)CO)c1ccncc1Nc1ccc(I)cc1F at or over 4 DSS in terms of drug sensitivity score?
A) y

Q) Now the compound C=CC(=O)Nc1cc2c(Nc3ccc(F)c(Cl)c3)ncnc2cc1OCCCN1CCOCC1
A) y

Q) Now consider Cn1c(=O)n(-c2ccc(C(C)(C)C#N)cc2)c2c3cc(-c4cnc5ccccc5c4)ccc3ncc21 .
A) n

Q) // repeat for COc1cc2ncnc(Nc3ccc(F)c(Cl)c3)c2cc1OCCCN1CCOCC1 and report
A) n

* * *

Quick list: drug sensitivity score per entry.
- Tested on: UT-SCC-8
- Procedure text: drug sensitivity score (DSS); higher = more sensitive; extreme values may be limits of the assay
- Measurement parameters: culture condition: embedded in Myogel + collagen I; treatment time: 3 days
Quick reminder: number only, in DSS, skip the unit.

| Chemical structure | Target of assay | drug sensitivity score [DSS] |
| --- | --- | --- |
| COc1cc2ncnc(Nc3ccc(F)c(Cl)c3)c2cc1OCCCN1CCOCC1 | UT-SCC-8 | 0 |
| Cn1c(=O)n(-c2ccc(C(C)(C)C#N)cc2)c2c3cc(-c4cnc5ccccc5c4)ccc3ncc21 | UT-SCC-8 | 0.6 |
| Cn1cnc2c(F)c(Nc3ccc(Br)cc3Cl)c(C(=O)NOCCO)cc21 | UT-SCC-8 | 1.37 |

Now look at this one.
Q) Write down the reported drug sensitivity score of Cc1c(CN2CCN(C(=O)[C@H](C)O)CC2)sc2c(N3CCOCC3)nc(-c3cnc(N)nc3)nc12 , test system: UT-SCC-8.
A) 6.2
